# studyTarget: T1, human CD84 on cells (human) (UniProt Q9UIB8)
# T1 sequence (looked up): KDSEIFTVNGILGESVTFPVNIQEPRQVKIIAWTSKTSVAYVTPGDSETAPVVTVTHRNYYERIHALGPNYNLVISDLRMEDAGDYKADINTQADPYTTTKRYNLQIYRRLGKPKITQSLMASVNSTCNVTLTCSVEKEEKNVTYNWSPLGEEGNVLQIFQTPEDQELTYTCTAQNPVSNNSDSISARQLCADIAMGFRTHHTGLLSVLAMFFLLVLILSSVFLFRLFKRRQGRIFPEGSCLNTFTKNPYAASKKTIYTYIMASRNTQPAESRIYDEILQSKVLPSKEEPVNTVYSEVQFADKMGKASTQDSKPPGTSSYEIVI
# methodNotes: flow cytometry, hybridoma supernatant at equal antibody concentration, 300.19-CD84+ cells
Parameter: 300.19-CD84 binding. Scope: all listed entries.
assayReadout: 300.19-CD84 binding (%)

GYCD84.2.27 (antibody, mouse IgG1, V domains shown) VH: QVTLKESGPGILQPSQTLSLTCSFSGFSLTTSGMGVGWIRQPSGKGLEWLAHIWWDDVKRYNPALKSRLTISKDTSSSQVFLKIASVDTADTASYYCARMSTSYYFDYWGQGTTLTVSS VL: DIVMTQSHKFMSTSLGDRVSISCKASQSLFTSVAWYQQKPGQSPKLLIYSASYRYTGVPDRFTGSGSGTDFTFTISSVQAEDLAVYYCQQHYSSPFTFGSGTKLGIK; 96.3
GYCD84.2.32 (antibody, mouse IgG1, V domains shown) VH: EVQLQQSGPELEKPGASVKISCKASGYSFTGYNMNWVKQSNGKSLEWIGNIDPYYGGTNYNQKFKGKATLTVDKSSSTAYMQLKSLTSEDSAVYYCARGLLSGSFPYWGQGTLVTVSA VL: DIQMTQSPASLSASVGETVTITCRASENIYSYLAWYQQKQGKSPQLLVYNAKTLAEGVPSRFSGSGSGTQFSLKINSLHPEDFGSYFCQHHYGSPLTFGAGTKLEVK; 99
GYCD84.1-97 (antibody, mouse IgG2a, V domains shown) VH: QVQLQQPGAELVKPGTSVKLSCKASGYNFTSYWINWVKLRPGQGLEWIGDIYLGSGSTNYNEKFKSKATLTVDTSSSSAYMQLSSLVSEDSALYYCATSGGYLGYWGQGTTLTVSS VL: DIVLTQSPASLAVSLGQRATISCRASQSVSTSSYSYMHWYQQKPGQPPKLLIKFASNLESGVPARFSGSGSGTDFTLNIHPVEEEDTATYYCQHSWEIPYTFGGGTKLEIK; 97.7
GYCD84.5.171 (antibody, mouse IgG1, V domains shown) VH: EVQLVESGGGLVQPKGSLKLACAASGFTFNIYAMNWVRQAPGKGLEWVARIRSKSNNYARFYADSVKDRFTISRDDSQSMLYLQMNNLKTEDTAMYYCVRPLRSYFSMDYWGQGTSVTVSS VL: SIVMTQSPKSMSMSVGERVTLSCKASENVDTYVSWYQQKPEQSPKLLIYGASNRYTGVPDRFTGSGSATDFTLTISSVKAEDLADYHCGQTYSYPWTFGGGTKLEIK; 93.2
GYCD84.1-108 (antibody, mouse IgG2a, V domains shown) VH: QVQLQQSGAELVRPGTSVKMSCKAAGYTFTNYWIGWVRQRPGHGLEWIGDIYPGGGYTNYNENFKGKATLTADTSSSTAYMQLSSLTSEDSAIYYCARSTTYYSSYWCFDVWGPGTTVTVSS VL: DIVMTQSPSSLSVSAGEKVTMSCKSSQSLLNSGNQANYLAWYQQKPGQPPKLLINGASTRESGVPDRFTGSGSGTDFTLTISSVQAEDLAVYYCQNDHSYPFTFGSGTKLEIK; 93.9
152-1D5 (antibody, mouse IgG1, V domains shown) VH: QVQLQQPGAEVVQPGTSVKLSCKASGYNFTNYWINWVKLRPGQGLEWIGDIYPVSGTTNYNEKFKRKATLTVDTSSSTGNMQLSSLASEDSALYYCASGTGRFAYWGQGTLVTVSA VL: DIVLTQSPASLAVSLGQRATISCRASQSVSTSSYSYMHWYQQKPGQPPKLLIKFASNLESGVPARFSGSGSGTDFTLNIHPVEEEDTATYYCQHSWEIPYTFGGGTKLEIK; 92.5
GYCD84.3.298 (antibody, mouse IgG1, V domains shown) VH: QVTLKESGPGILQPSQTLSLTCSFSGFSLSTSGMGVGWIRQPSGKGLEWLAHIWWDDVKRYNPALRSRLTISKDTSSSQVFLNIASVDTADTATYYCTRIAVTYFFDFWGQGTTLTVSS VL: DIQMTQSPASLSASVGETVTITCRASENIFSSFAWYQQKRGRSPQLLVYNARTLAEGVPSRFSGSGSGTQFSLKINSLQPEDFGTYFCQHHYASPFTFGSGTELGVK; 93.5
GYCD84.1-226 (antibody, mouse IgG1, V domains shown) VH: QVQLQQPGAELVKPGTSVKLSCKASGYNFTRYWINWVKLRPGQGLEWIGDIYPGSGSTNYNEKFKSKATLTVDTSSSTAYMQLSRLASEDSALYYCARDTTIAYWGQGTLVTVSA VL: DIVLTQSPTSLAVSLGQRATISCRASQSVTTSRYSYMHWYQQKPGQPPKLLIKFASNLESGVPARFSGSGSGTDFTLNIHPVEEEDTATYYCQHSWEIPYTFGGGTKLEIK; 98.1
GYCD84.1-7 (antibody, mouse IgG1, V domains shown) VH: QVTLKESGPGILQPSQTLSLTCSFSGFSLSTSGMGVGWIRQPSGKGLEWLAHIWWDDVKRYNPALKSRLTISKDTSSSQVFLKIASVDTADTATYYCARMRTSYYFDYWGQGTTLTVSS VL: DIQMTQSPASLSASVGETVTITCRASENIFSSLAWYQQRQGKSPQLLVYNAKTLAEGVPSRFSGSGSGTQFSLKINSLQPEDFGSYYCQHHYATPFTFGSGTKLEIK; 92.6
GYCD84.1-207 (antibody, mouse IgG1, V domains shown) VH: EVKLLESGGGLVQPGGSLKLSCAASGFDFSRYWMSWVRQAPGKGLEWIGEINPDSSTINYTPSLKDKFIISRDNAKNTLYLQMSKVRSEDTALYYCARPGPTVVATYWYFDVWGAGTTVTVSS VL: DVLMTQTPLSLPVSLGDQASISCRSSQSIVHSNGNTYLEWYLQKPGQSPKLLIYKVSSRFSGVPDRFSGSASGTDFTLKISRVEAEDLGVYYCFQGSHVPRTFGGGTKLEIK; 94.2
GYCD84.3.89 (antibody, mouse IgG1, V domains shown) VH: EVKLLESGGGLVQPGGSLKLSCAASGFGFSRSWMSWVRQAPGKGLEWIGEINPDSSTINYTPSLKDKFIISRDNAKNTLFLQMSKVRSEDTALYYCATFYDGYSIYWYFDVWGAGTTVTVSS VL: DVLMTQTPLSLPVSLGDQASISCRSSQSIVHSNGDTYLEWYLQKPGQSPKLLIYKVSNRFSGVPDRFSGSGSGTDFTLKISRVEAEDLGVYYCFQGSHVPRTFGGGTKLEIK; 83
